Reported inhibition at 1 µM values follow for various compounds
Target: Recombinant human mPGES-1 (Homo sapiens, UniProt O14684)
Construct: made in house; host or cells: CHO cells
Sequence (O14684 1-152): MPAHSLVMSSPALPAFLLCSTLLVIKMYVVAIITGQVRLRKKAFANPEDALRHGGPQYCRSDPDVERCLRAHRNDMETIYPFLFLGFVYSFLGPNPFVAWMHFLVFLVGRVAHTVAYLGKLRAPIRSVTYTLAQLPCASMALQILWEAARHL
Test: In-vitro mPGES-1 inhibitor screening (inhibition of PGE2 formation from PGH2, HTRF detection)
Type: biochemical
Details: 1 μM test compound; crude microsomal fraction, 15 μM PGH2; read-out: Percentage inhibition at 1 μM
Hi! Could you send only the number? It should be in %, unit omitted.

Reference set (3 entries):
                                smiles_text       quantity_kind  result_unit  readout_number
0  CC(C)(C)C(=O)NCc1ccc(Cl)c(C(=O)Nc2cccc3c(O[C@H]4CC[C@H](C(F)(F)F)CC4)ncnc23)c1F  inhibition at 1 µM            %            94.4
1  CC(C)(C)C(=O)NCc1ccc(Cl)c(C(=O)Nc2cccc3c(Oc4cc(C(F)(F)F)ccc4F)nccc23)c1  inhibition at 1 µM            %              99
2  CC(C)(C)C(=O)NCc1ccc(Cl)c(C(=O)Nc2cccc3c(Oc4cccc(C(F)(F)F)c4)nccc23)c1  inhibition at 1 µM            %             100

Now consider the entry below.
Qu. Tell us which inhibition at 1 µM value is on record for CC1(C)CCC(Oc2nccc3c(NC(=O)c4c(Cl)ccc(CNC(=O)C(C)(C)C)c4F)cccc23)CC1
Ans. 100
